The compounds below have reported Ki for Thymidylate synthase (Homo sapiens).
experimental readout: Ki (nM)

P = Nc1nc2[nH]c3cccc(Sc4ccccc4)c3c2c(=O)[nH]1
Q = Nc1nc2[nH]c3cccc(Sc4cccc5ccccc45)c3c2c(=O)[nH]1
# returns the entry with the larger Ki; inputs P and Q Select an item and report its label.
Q

----------
Target: Bifunctional dihydrofolate reductase-thymidylate synthase (Toxoplasma gondii, UniProt Q07422)
Sequence (Q07422 whole entry): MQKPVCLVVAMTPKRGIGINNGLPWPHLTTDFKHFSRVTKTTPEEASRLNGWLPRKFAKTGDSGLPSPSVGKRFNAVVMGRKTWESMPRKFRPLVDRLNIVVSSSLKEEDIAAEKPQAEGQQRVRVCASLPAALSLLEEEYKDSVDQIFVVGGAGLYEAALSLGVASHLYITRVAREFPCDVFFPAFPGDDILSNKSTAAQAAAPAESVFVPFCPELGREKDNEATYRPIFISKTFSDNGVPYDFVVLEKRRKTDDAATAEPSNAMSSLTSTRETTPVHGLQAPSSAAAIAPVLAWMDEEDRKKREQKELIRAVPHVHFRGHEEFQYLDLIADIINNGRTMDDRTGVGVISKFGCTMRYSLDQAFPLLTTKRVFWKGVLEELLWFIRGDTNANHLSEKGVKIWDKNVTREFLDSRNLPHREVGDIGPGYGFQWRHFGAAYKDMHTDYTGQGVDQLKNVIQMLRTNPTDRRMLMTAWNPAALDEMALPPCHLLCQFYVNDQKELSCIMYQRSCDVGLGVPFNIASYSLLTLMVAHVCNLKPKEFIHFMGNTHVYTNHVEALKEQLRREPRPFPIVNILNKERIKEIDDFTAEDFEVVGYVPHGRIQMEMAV
experimental readout: Ki (nM)
Reply with just the number (in nM).

> print(dat)
                           structure.smiles  observed.measurement
1  Nc1nc2[nH]c3cccc(Sc4ccc5ccccc5c4)c3c2c(=O)[nH]1                   1.8

Please give the measured Ki for this compound: Nc1nc2[nH]c3cccc(Sc4cccc5ccccc45)c3c2c(=O)[nH]1
3.1

Please give the measured Ki for this compound: Nc1nc2[nH]c3cccc(Sc4ccccc4)c3c2c(=O)[nH]1
2

----------
The compounds below have reported IC50 for Thymidylate synthase (Homo sapiens, UniProt P04818).
Reply with just the number (in nM).

> print(dat)
                           structure.smiles  uom  observed.measurement
1  Nc1nc2[nH]c3cccc(Sc4ccccc4)c3c2c(=O)[nH]1   nM                   481

# input for lookup
Give IC50 (Thymidylate synthase (Homo sapiens, UniProt P04818)) of the following compound: Nc1nc2[nH]c3cccc(Sc4ccc5ccccc5c4)c3c2c(=O)[nH]1
28.8
